- system: Trypsin (Homo sapiens, UniProt P07477+P07478+P35030)
- assay comment: Inhibition of trypsin (unknown origin)
- Type: protein assay
The threshold is 3000 nM. Values of IC50 beneath it are tagged met; values meeting or exceeding it are tagged not met.

Query block: Hi there! Is IC50 for CC[C@@H](C)[C@@H](NC1CCC(F)(F)CC1)C(=O)N1C[C@](O)(CC)C[C@H]1C(=O)NCc1ccc2c(N)nccc2c1 below 3000 nM, do you know?
Result block: met

Query block: Given the entry CC[C@@H](C)[C@@H](NC1CCCCC1)C(=O)N1C[C@@](C)(C#N)C[C@H]1C(=O)NCc1ccc2c(N)nccc2c1 , would its reported IC50 be below 3000 nM?
Result block: not met

Query block: Does CC[C@@H](C)[C@@H](NS(=O)(=O)Cc1ccc(Cl)cc1)C(=O)N1C[C@@](C)(O)C[C@H]1C(=O)NCc1ccc2c(N)nccc2c1 have IC50 strictly under 3000 nM?
Result block: met

Query block: Determine if CC[C@@H](C)[C@@H](NS(=O)(=O)Cc1ccc(Cl)cc1)C(=O)N1C[C@@](C)(C#N)C[C@H]1C(=O)NCc1ccc2c(N)nccc2c1 shows IC50 strictly lower than 3000 nM.
Result block: met

----------
Exercise: state measured pIC50 for each of the compounds provided.
Schema: pIC50 number; meaning minus log10 of the concentration expressed in molar units.

Query block: Could you share what pIC50 was measured for CC[C@@H](C)[C@@H](NC1CCCCC1)C(=O)N1C[C@@H](O)C[C@H]1C(=O)NCc1ccc2c(N)nccc2c1 , tested on Coagulation factor X (Homo sapiens, UniProt P00742)?
Result block: 6.87

Query block: Which pIC50 is reported with Coagulation factor X (Homo sapiens, UniProt P00742) for this entry: CC[C@@H](C)[C@@H](NS(=O)(=O)Cc1ccc(Cl)cc1)C(=O)N1C[C@@](C)(O)C[C@H]1C(=O)NCc1ccc2c(N)nccc2c1 ?
Result block: 7.11

Query block: What value of pIC50 on Coagulation factor X (Homo sapiens, UniProt P00742) does CC[C@@H](C)[C@@H](NC(C)C(F)F)C(=O)N1C[C@@](C)(O)C[C@H]1C(=O)NCc1ccc2c(N)nccc2c1 (stereo not given in full) have?
Result block: 6.10

Query block: State its pIC50 on Coagulation factor X (Homo sapiens, UniProt P00742): CC[C@@H](C)[C@@H](NC1CCC(F)(F)CC1)C(=O)N1C[C@](O)(CC)C[C@H]1C(=O)NCc1ccc2c(N)nccc2c1
Sequence (P00742 41-179 limits assumed): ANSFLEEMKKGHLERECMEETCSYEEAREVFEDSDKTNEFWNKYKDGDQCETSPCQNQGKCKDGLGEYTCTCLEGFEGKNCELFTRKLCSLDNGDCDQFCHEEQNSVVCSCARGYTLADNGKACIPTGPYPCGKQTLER
Sequence (P00742 235-488 limits assumed): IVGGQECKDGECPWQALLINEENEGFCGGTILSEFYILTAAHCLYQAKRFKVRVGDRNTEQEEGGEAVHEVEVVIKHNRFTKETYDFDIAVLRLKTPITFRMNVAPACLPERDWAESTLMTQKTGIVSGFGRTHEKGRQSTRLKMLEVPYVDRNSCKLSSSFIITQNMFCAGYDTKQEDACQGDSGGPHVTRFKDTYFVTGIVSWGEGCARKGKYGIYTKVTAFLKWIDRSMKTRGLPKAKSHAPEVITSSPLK
Result block: 6.19

Query block: Provide value of pIC50 for this record tested with Coagulation factor X (Homo sapiens, UniProt P00742): CC[C@@H](C)[C@@H](NS(=O)(=O)Cc1ccc(Cl)cc1)C(=O)N1C[C@@](C)(C#N)C[C@H]1C(=O)NCc1ccc2c(N)nccc2c1
Result block: 6.08

----------
Recorded pIC50 values (Coagulation factor XI (Homo sapiens, UniProt P03951)) are given below.
pIC50 is a log-scale quantity: -log10 of the concentration expressed in molar.

Query block: Can you look up the measured pIC50 of Nc1nccc2cc(CNC(=O)[C@@H]3CCCN3C(=O)[C@@H](CC3CC3)NC3CCCCC3)ccc12 for me?
Result block: 7.01

Query block: Given CC[C@@H](C)[C@@H](NC1CCCCC1)C(=O)N1C[C@@](C)(O)C[C@H]1C(=O)NCc1ccc2c(N)nccc2c1 , state its recorded pIC50.
Result block: 7.92

Query block: Fill in: pIC50 of CC[C@@H](C)[C@@H](NS(=O)(=O)Cc1ccc(Cl)cc1)C(=O)N1C[C@@](C)(C#N)C[C@H]1C(=O)NCc1ccc2c(N)nccc2c1 is ___
Result block: 8.00

Query block: Could you share which pIC50 value was measured for CC[C@@H](C)[C@@H](NC1CCCCC1)C(=O)N1C[C@@H](O)C[C@H]1C(=O)NCc1ccc2c(N)nccc2c1 ?
Result block: 7.68

Query block: May I ask what pIC50 has been recorded for CC(C)C[C@@H](NC1CCCCC1)C(=O)N1C[C@@H](C)C[C@H]1C(=O)NCc1ccc2c(N)nccc2c1 ?
Result block: 5.63

Query block: Which measured pIC50 value corresponds to Nc1nccc2cc(CNC(=O)[C@@H]3CCCN3C(=O)[C@@H](CC3CCCCC3)NC3CCCCC3)ccc12 ?
Result block: 6.80

Query block: I'd like to know its pIC50. The compound in question is CC(C)C[C@@H](NC1CCCCC1)C(=O)N1C[C@@H](C(F)(F)F)C[C@H]1C(=O)NCc1ccc2c(N)nccc2c1
Result block: 7.12

----------
- system: Trypsin (Homo sapiens, UniProt P07477+P07478+P35030)
- assay comment: Inhibition of trypsin (unknown origin)
- Type: protein assay
What IC50 was measured for each of the following?
Form entry: value (nM) — number only.

Query block: Hello, I am looking for reported IC50 with Trypsin (Homo sapiens, UniProt P07477+P07478+P35030) for CC[C@@H](C)[C@@H](NC1CCCCC1)C(=O)N1C[C@@](C)(O)C[C@H]1C(=O)NCc1ccc2c(N)nccc2c1 . Could you help?
Result block: 547

Query block: Please state recorded IC50 (tested on Trypsin (Homo sapiens, UniProt P07477+P07478+P35030)) of CC[C@@H](C)[C@@H](NC1CCCCC1)C(=O)N1C[C@](O)(CC)C[C@H]1C(=O)NCc1ccc2c(N)nccc2c1
Result block: 410

Query block: Please tell me: IC50 of CC[C@@H](C)[C@@H](NC(C)C(F)F)C(=O)N1C[C@@](C)(O)C[C@H]1C(=O)NCc1ccc2c(N)nccc2c1 (some centres undefined) , system Trypsin (Homo sapiens, UniProt P07477+P07478+P35030)?
Result block: 4034

Query block: // lookup IC50 | system=Trypsin (Homo sapiens, UniProt P07477+P07478+P35030) | key= CC[C@@H](C)[C@@H](NC1CCCCC1)C(=O)N1C[C@@H](O)C[C@H]1C(=O)NCc1ccc2c(N)nccc2c1
Result block: 824

----------
measured metric: pIC50
Convention used: pIC50 is expressed as -log10 of the molar concentration.

Query block: Request body: readout pIC50, system Coagulation factor XI (Homo sapiens), query CC(C)C[C@@H](NC1CCOCC1)C(=O)N1CCC[C@H]1C(=O)NCc1ccc2c(N)nccc2c1 . Return the value.
Result block: 5.87

Query block: Form field: pIC50 recorded for CC(C)C[C@@H](NC(C)C(F)F)C(=O)N1CCC[C@H]1C(=O)NCc1ccc2c(N)nccc2c1 (stereo partly drawn) with Coagulation factor XI (Homo sapiens) (enter value)
Result block: 6.47

Query block: Notebook entry, Coagulation factor XI (Homo sapiens) assay: pIC50 of CC[C@@H](C)[C@@H](NC1CCC(F)(F)CC1)C(=O)N1C[C@](O)(CC)C[C@H]1C(=O)NCc1ccc2c(N)nccc2c1 = ?
Result block: 7.06

Query block: Provide the documented pIC50 with Coagulation factor XI (Homo sapiens) as the system for CC[C@@H](C)[C@@H](NS(=O)(=O)Cc1ccc(Cl)cc1)C(=O)N1C[C@@](C)(O)C[C@H]1C(=O)NCc1ccc2c(N)nccc2c1
Sequence (P03951 19-387 limits assumed): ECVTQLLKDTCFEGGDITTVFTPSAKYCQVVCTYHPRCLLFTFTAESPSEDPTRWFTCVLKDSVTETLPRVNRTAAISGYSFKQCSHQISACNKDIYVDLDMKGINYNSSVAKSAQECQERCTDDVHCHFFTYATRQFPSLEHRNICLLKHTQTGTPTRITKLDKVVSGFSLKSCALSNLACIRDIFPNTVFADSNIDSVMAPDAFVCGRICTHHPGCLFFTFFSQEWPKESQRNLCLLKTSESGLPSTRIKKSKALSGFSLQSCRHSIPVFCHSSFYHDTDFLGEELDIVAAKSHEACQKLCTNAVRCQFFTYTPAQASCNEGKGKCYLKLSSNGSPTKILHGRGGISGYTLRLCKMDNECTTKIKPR
Sequence (P03951 388-625 limits assumed): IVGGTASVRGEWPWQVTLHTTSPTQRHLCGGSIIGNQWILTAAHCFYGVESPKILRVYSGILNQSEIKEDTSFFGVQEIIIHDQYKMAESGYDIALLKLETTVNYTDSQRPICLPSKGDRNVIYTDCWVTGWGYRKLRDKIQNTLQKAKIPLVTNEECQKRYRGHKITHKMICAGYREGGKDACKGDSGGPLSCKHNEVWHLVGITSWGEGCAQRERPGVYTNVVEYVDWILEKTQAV
Result block: 7.82

Query block: What value of pIC50 on Coagulation factor XI (Homo sapiens) does CC[C@@H](C)[C@@H](NS(=O)(=O)Cc1ccc(C(F)(F)F)cc1)C(=O)N1C[C@@](C)(O)C[C@H]1C(=O)NCc1ccc2c(N)nccc2c1 have?
Result block: 7.34

Query block: Find the measured pIC50: item CC(C)C[C@@H](NC1CCC(F)(F)CC1)C(=O)N1CCC[C@H]1C(=O)NCc1ccc2c(N)nccc2c1 , target or system Coagulation factor XI (Homo sapiens).
Result block: 6.38

Query block: Record CC[C@@H](C)[C@@H](NC1CCCCC1)C(=O)N1C[C@@](C)(C#N)C[C@H]1C(=O)NCc1ccc2c(N)nccc2c1 : what is its pIC50 with Coagulation factor XI (Homo sapiens)?
Result block: 7.55

Query block: Identify the measured pIC50 of CC(C)C[C@@H](NC1CCCCC1)C(=O)N1C[C@@H](O)C[C@H]1C(=O)NCc1ccc2c(N)nccc2c1 for Coagulation factor XI (Homo sapiens).
Result block: 7.00

----------
- system: Coagulation factor XII (Homo sapiens, UniProt P00748)
- Sequence (P00748 whole entry): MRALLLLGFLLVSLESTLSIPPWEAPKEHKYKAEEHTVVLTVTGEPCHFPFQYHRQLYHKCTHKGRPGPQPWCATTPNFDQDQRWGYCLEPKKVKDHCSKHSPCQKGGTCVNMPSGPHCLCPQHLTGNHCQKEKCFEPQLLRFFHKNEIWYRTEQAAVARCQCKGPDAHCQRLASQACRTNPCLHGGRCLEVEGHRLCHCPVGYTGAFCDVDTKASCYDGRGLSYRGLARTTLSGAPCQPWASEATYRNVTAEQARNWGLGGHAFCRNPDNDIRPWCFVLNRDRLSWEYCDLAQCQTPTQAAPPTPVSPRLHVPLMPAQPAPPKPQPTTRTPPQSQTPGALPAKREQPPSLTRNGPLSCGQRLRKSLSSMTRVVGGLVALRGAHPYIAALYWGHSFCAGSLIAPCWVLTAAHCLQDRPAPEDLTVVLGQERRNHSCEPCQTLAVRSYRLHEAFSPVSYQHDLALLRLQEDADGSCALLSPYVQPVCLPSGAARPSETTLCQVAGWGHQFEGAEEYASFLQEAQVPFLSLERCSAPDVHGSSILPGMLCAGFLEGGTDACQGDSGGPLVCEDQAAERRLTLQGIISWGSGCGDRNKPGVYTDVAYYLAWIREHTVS
measured metric: pIC50
The value called pIC50 is obtained by taking minus log10 of the concentration in mol/L.

Query block: Fill in: pIC50 of CC[C@@H](C)[C@@H](NC1CCCCC1)C(=O)N1C[C@@H](O)C[C@H]1C(=O)NCc1ccc2c(N)nccc2c1 is ___
Result block: 6.47

Query block: Recorded pIC50 of CC[C@@H](C)[C@@H](NC1CCCCC1)C(=O)N1C[C@](O)(CC)C[C@H]1C(=O)NCc1ccc2c(N)nccc2c1 , please.
Result block: 6.37
